Biological target: pooled human IgG
measured-attribute: Enzyme Activity Endpoint Assay (purified): scIgG (ng/µL)
Provide only the numeric value, understood in ng/µL.

q: Record request: Enzyme Activity Endpoint Assay (purified): scIgG value, item PRT-321 (protein) MTITSVWTKGVTPPTPEDFRENNEDVLHAPYVANQGWYDITKTFDGKDNLLCGAATAGNMLHWWFDQNKEEIERYLKKHPEKQKIIFGNQELFDVKAAIDTKDSQTNSKLFDYFRDKAFPNLSARQLGVMPDLVLDMFINGYYLNLPKTQSTDVNRPYQDKDKRGGIFDAVFTRGDQTTLLTARHDLKNKGLNEISDLIKQELTEGKALALSHTYANVRINHVINLWGADFDAEGNLIAIYVTDSDANASIGMKKYAVGVNANGKVAISAKKIEGDNIGAQVLGLFTLSTGQDQWQKLS
a: 214

q: Input PRT-147 (protein) MANQEIRYSEVTPYHIKIVWTKGVTPPANFTQGEDVFHAPYVANQGWYDITKTFNGKDDLLCGAATAGNMLHWWFDQNKDQIKRYLEEHPEKQKINFNGEQMFDVKEAIDTKNHQLDSKLFEYFKEKAFPYLSTKHLGVFPDHVIDMFINGYRLSLTNHGPTPVKEGSKDPRGGIFDAVFTRGDQSKLLTSRHDFKEKTLNDISQLIKQELQSGKALGLSHTYANVRINHVINLWGADFDAEGNLEAIYVTDSDSNASIGMKKYFVGKNSAGKVAISAKEIKEDNIGAQVLGLFTLSTGQDSWNQTN
a: 0
